Tested on: SNB-78 CNS
procedure text: NCI tumour cell line growth inhibition, 48 h
assay readout: TGI

c1ccc2c(c1)N=C(c1cccc3ccccc13)CC(c1ccc3c(c1)OCO3)S2 (stereo not drawn)	> 100 µM

Using the record for CC1=CC(N2C(=O)C(C)=CC2O)NC1=O (stereo not drawn) , report its TGI.
> 100 µM

Using the record for CCCCCC/C=C1\CCC(CN2CCOCC2)C1=O (stereo not drawn) , report its TGI.
50.6 µM

Using the record for CSc1nc2c(ncn2C2OCC(O)C(O)C2O)c(=O)n1C (stereo not drawn) , report its TGI.
> 100 µM

Using the record for COc1cc(C2C(Cl)C(=O)N2NC(=O)c2ccc(N)cc2)cc(Br)c1O (stereo not drawn) , report its TGI.
43.9 µM

Using the record for CCN(CC)CCNc1ccc2nnn3c4ccc(O)cc4c(=O)c1c23 , report its TGI.
21.1 µM

Using the record for O=C1CCSC2=C1SCc1sccc12 , report its TGI.
> 100 µM

Using the record for O=C(/C(=C\c1ccc(Cl)cc1)c1ccccc1)c1ccccc1 , report its TGI.
> 100 µM

----------
Test system: HOP-18 NSCLC
procedure text: NCI tumour cell line growth inhibition, 48 h
assay readout: TGI

Consider the following illustrative entries.
Cc1ccc(S(=O)OCC23CC4CC(CC(C4)C2)C3)cc1 (configuration not stated)	> 100 µM
CCCCCC/C=C1\CCC(CN2CCOCC2)C1=O (configuration not stated)	20 µM
COc1ccccc1NC(=O)c1nc2ccc([N+](=O)[O-])cc2nc1C	39.9 µM

Using the record for C=C[C@]1(C)CCC2=C(CCC3C2(C)CCC[C@@]3(C)COC(C)=O)C1 (some centres not stated) , report its TGI.
70.1 µM

Using the record for CCN(CC)Cc1c(/C=C\c2cc(OC)c(OC)c(OC)c2)ccc(OC)c1O , report its TGI.
> 100 µM

Using the record for COc1ccc(C2C(C)C(=O)C(C)C(c3ccc(OC)cc3)N2N=O)cc1 (configuration not stated) , report its TGI.
> 1000 µM

Using the record for COC1(O)c2cccc(Cl)c2C(=O)N1C1(C(N)=O)CCCCC1 (configuration not stated) , report its TGI.
> 100 µM

Using the record for CC(=O)OC1COC(N2C(=O)C(=O)c3cc(Br)ccc32)C(OC(C)=O)C1OC(C)=O (configuration not stated) , report its TGI.
> 100 µM

Using the record for O=C(Nc1cccc2c1[nH]c1c(-c3ccccc3)nccc12)c1ccccc1[N+](=O)[O-] , report its TGI.
> 100 µM

Using the record for O=Cc1ccc(CCl)cc1 , report its TGI.
37.4 µM

Using the record for C=C(C(=C)P(=S)(c1ccccc1)c1ccccc1)P(=S)(c1ccccc1)c1ccccc1 , report its TGI.
> 100 µM

Using the record for CC1(c2ccccc2)CC(c2cccc([N+](=O)[O-])c2)=NO1 (configuration not stated) , report its TGI.
> 100 µM

Using the record for CC(=O)NC1C(OCc2ccccc2)OC(COC(=O)CCCCCCCCCCNc2ccc([N+](=O)[O-])c3[nH]c4ccccc4c(=O)c23)C(O)C1OC(C)C(=O)NC(C)C(=O)NC(CCC(N)=O)C(=O)OCc1ccccc1 (configuration not stated) , report its TGI.
> 100 µM

Using the record for COC(=O)C(C/C=C(\C)c1ccc(Cl)cc1)C(C)=O (configuration not stated) , report its TGI.
> 100 µM

Using the record for O=C(O)C12CCCCC1CCCC2 (configuration not stated) , report its TGI.
> 100 µM

Using the record for CSc1nc2c(ncn2C2OCC(O)C(O)C2O)c(=O)n1C (configuration not stated) , report its TGI.
> 100 µM

Using the record for Ic1cc2c(cc1C1SCCCS1)OCO2 , report its TGI.
> 100 µM

----------
Test system: SF-295 CNS
procedure text: NCI tumour cell line growth inhibition, 48 h; in the data active = GI50 below about 0.43 µM; inactive = the rest
Result category, one only: YES for active, NO for inactive

Use the examples below as a reference point.
c1ccc2cc(C[n+]3ccn(CCCCCCCCCCn4cc[n+](Cc5ccc6ccccc6c5)c4)c3)ccc2c1	NO
Cc1ccc(NC(=O)c2sc3nc4c(cc3c2N)C(=O)CCC4)cc1C	YES
CCN1Cc2nc3sc(C)c(C)c3c(=O)n2C=C1C	NO
O=C(Nc1ccc(/C=C/c2ccc(NC(=O)c3cc(S(=O)(=O)O)c4cccnc4c3O)cc2S(=O)(=O)O)c(S(=O)(=O)O)c1)c1cc(S(=O)(=O)O)c2cccnc2c1O	NO
CC(=O)N1N=C2/C(=C/c3ccc(Cl)cc3)CC(C)CC2C1c1ccc(Cl)cc1 (stereo not drawn)	NO
CN1CCN(Cc2ccc(NC(=O)c3cccc(C#Cc4cnc(N)c5ncccc45)c3F)cc2C(F)(F)F)CC1	NO
CN1CCN(c2ccc3nc(-c4ccc5nc(-c6ccc(O)cc6)[nH]c5c4)[nH]c3c2)CC1	NO
CN1C/C=C/CCOc2cccc(c2)-c2ccnc(n2)Nc2cccc(c2)C1	YES

State the result this test recorded for Oc1cc2ccccc2c(-c2c(O)c(O)cc3ccccc23)c1O .
NO

State the result this test recorded for COc1ccc(-n2ccnc2-c2cc(OC)c(OC)c(OC)c2)cc1 .
NO

State the result this test recorded for Cn1cc(C2=C(c3cn(C)c4ccccc34)C(=O)NC2=O)c2ccccc21 .
NO

----------
Test system: ACHN renal
procedure text: NCI tumour cell line growth inhibition, 48 h
assay readout: TGI

Consider the following illustrative entries.
O=C(Nc1n[nH]c2nnc(-c3cccnc3)cc12)C1CC1	> 25 µM
COC1OC(COC(=O)c2cc(O)c(O)c(O)c2)C(OC(=O)c2cc(O)c(O)c(O)c2)C(OC(=O)c2cc(O)c(O)c(O)c2)C1OC(=O)c1cc(O)c(O)c(O)c1 (stereo not given)	> 100 µM
O=C(/C(=C\c1ccc(Cl)cc1)c1ccccc1)c1ccccc1	> 100 µM
O=C(OCc1ccccc1)N(CCCCN(CCCNCc1ccccc1)C(=O)OCc1ccccc1)CCCNCc1ccccc1	2.93 µM
c1ccc2c(c1)NC1(N3CCCCC3)CCCCC21 (stereo not given)	> 100 µM
O=C1C=C(OCCCCl)C(=O)c2c(O)ccc(O)c21	2.96 µM
COc1cc(C(=O)Nc2cc(OC)c3ccn(C)c3c2)cc2c1C[C@]1(C)CC[C@@H](O)C(C)(C)[C@H]1O2	> 100 µM
COc1cc2c(cc1Nc1nc(Nc3cccc(F)c3C(N)=O)c3cc[nH]c3n1)N(C(=O)CN1CCN(C(C)C)CC1)CC2	10.2 µM

Using the record for CCNC(=O)O/N=C1\CCC2[C@@H]3CC=C4C[C@@H](OC5CCCCO5)CC[C@]4(C)C3CC[C@]12C (stereo not given in full) , report its TGI.
2.81 µM

Using the record for CN(c1cn(C2CC[C@@H](CO)O2)c(=O)[nH]c1=O)C1CCCCC1 (stereo not given in full) , report its TGI.
> 100 µM

Using the record for O=C(Nc1cccc2c1[nH]c1c(-c3ccccc3)nccc12)c1ccccc1[N+](=O)[O-] , report its TGI.
> 100 µM

Using the record for OCCOc1ccccc2cccc1-2 , report its TGI.
> 100 µM

Using the record for C=CCOC(=O)C1=C(CCC[C@@H](C)O[Si](C)(C)C(C)(C)C)N=C(N)N2[C@H](CCO)CC[C@@H]12 , report its TGI.
40.1 µM

----------
Test system: 786-0 renal
procedure text: NCI tumour cell line growth inhibition, 48 h
assay readout: TGI (µM)
Numeric answer only, unit µM assumed.

CCOC(=O)c1[nH]cc(C)c1-c1ccc2c(-c3ccccc3)nc3ccccc3n12	12.8
COc1cc(/C=C2\C[C@H]3[C@@H]4CC=C5C[C@@H](O)CC[C@]5(C)[C@H]4CC[C@]3(C)[C@H]2O)ccc1OCCCn1ccnc1	3.09
C[C@@H](NC(=O)c1ccc(CNC(=O)/C=C/c2cccc(Oc3ccccc3)c2)cc1)c1ccccc1	35.4

API: the following record is the query input.
Using the record for CSc1ccc(/C=C2\N=C(c3ccccc3)N(c3nc4cc(C)c(C)cc4s3)C2=O)cc1 , report its TGI.
61.6

----------
System: UACC-257 melanoma
procedure text: NCI tumour cell line growth inhibition, 48 h
# TGI per entry
Numeric answer only, unit µM assumed.

COC(=O)/C=C/C1(O)C=CC(=O)C=C1	13.6

API: the following record is the query input.
Using the record for CN(C)c1ccc(/C=C/C2=[N+](C)c3ccccc3C2(C)C)cc1 , report its TGI.
6.17

----------
Test system: OVCAR-8 ovarian
procedure text: NCI tumour cell line growth inhibition, 48 h
assay readout: GI50

O=C(c1ccco1)c1c(C(F)(F)F)n([O-])c2ccc(Cl)cc2[n+]1=O	0.799 µM
COc1cc(C(=O)N/N=C/c2ccc(N(C)C)cc2)cc(OC)c1OC	0.599 µM
c1ccc2cc(C[n+]3ccn(CCCCCCCCCCn4cc[n+](Cc5ccc6ccccc6c5)c4)c3)ccc2c1	2.18 µM

Using the record for Cc1ccc(NC(=O)c2sc3nc4c(cc3c2N)C(=O)CCC4)cc1C , report its GI50.
3.45 µM

Using the record for Cn1cc(C2=C(c3cn(C)c4ccccc34)C(=O)NC2=O)c2ccccc21 , report its GI50.
2.96 µM
